test system: LOX IMVI melanoma; experiment: NCI-60 one-dose screen, 48 h; settings: 10 µM unless noted
This is part of a sample that, as a whole, favours compounds with a hit. Of some 83,000 tested, about 20% had one in any assay. The source made the active and inactive calls. The calls were made as follows: active = growth percent below 10; inactive = the rest.
Possible outcomes: active, inactive

compound="COc1ccc(C(=O)C2C(C#N)C(C#N)C3c4ccccc4C=CN23)cc1 (stereo not given)" assigned_class=inactive
compound=COc1cc2oc(-c3cccc(C(=O)Nc4ccc(Cl)cc4)c3)cc(=O)c2c(O)c1OC assigned_class=inactive
compound=O=C(NCCc1ccccc1)Nc1ccc2cc3ccc(NC(=O)NCCc4ccccc4)cc3nc2c1 assigned_class=active
compound=Cc1ccc(-c2csc(NC(=O)CSc3nc(-c4ccccc4)cc(=O)[nH]3)n2)cc1 assigned_class=inactive
compound="N#CC1C(C#N)C2c3ccccc3C=CN2C1C(=O)c1ccc(Br)cc1 (stereo not given)" assigned_class=inactive

###

test system: IGROV1 ovarian; assay: NCI-60 one-dose screen, 48 h (100 = growth as untreated, 0 = no growth, -100 = all killed); settings: 10 µM unless noted
Compounds without any hit were thinned out: in the full panel of roughly 83,000, 20% have a hit.
Examples of compounds with documented growth follow.
MEASUREMENT TYPE: growth (%)

compound=O=C(/C=C(O)/C=C/c1ccc(SC(F)(F)F)cc1)/C=C/c1ccc(SC(F)(F)F)cc1 measurement_type=growth measured=80.6
compound="COc1cc(C=O)ccc1OC1OC(COC(C)=O)C(OC(C)=O)C(OC(C)=O)C1OC(C)=O (centres undefined)" measurement_type=growth measured=113
compound=Cn1nc(CC#N)c2c(=N)n(N)cnc21 measurement_type=growth measured=103
compound="CC(Sc1nc2ccccc2c(=O)n1CCc1ccc(S(N)(=O)=O)cc1)C(=O)Nc1ccc(Cl)cc1 (centres undefined)" measurement_type=growth measured=86.3
compound=COc1ccc(C(=O)c2cc(C)c(OC)c(C)c2)c(OC)c1NC(C)=O measurement_type=growth measured=31.5
compound=C=C(C)[C@@H]1CC[C@]2(CN)CC[C@]3(C)[C@H](CC[C@@H]4[C@@]5(C)CCCNC(C)(C)[C@@H]5CC[C@]43C)[C@@H]12 measurement_type=growth measured=-81.9
compound=NS(=O)(=O)c1ccc(Cn2c(SCC(=O)N/N=C/c3ccccc3O)nc3ccccc3c2=O)cc1 measurement_type=growth measured=62.3
compound=CN(C)CCn1c2ccc(Br)cc2c2nc3ccccc3nc21 measurement_type=growth measured=18
compound="O=C(c1nc2ccccc2[nH]1)C1C(c2ccc(Br)cc2)C2CC3CCCC[C@H]3N2[C@@]12C(=O)Nc1cc(Cl)ccc12 (some centres undefined)" measurement_type=growth measured=28.8
compound=CCCOc1ccc(/C=N/Nc2cc(C)nc3ccc(Cl)cc23)cc1 measurement_type=growth measured=42.1
compound=CN(CCN(C)c1ccc(C(=N)N)cc1)c1ccc(C(=N)N)cc1 measurement_type=growth measured=26
compound=CCOc1ccc(/C=N/Nc2cc(C)nc3ccc(Br)cc23)cc1 measurement_type=growth measured=96.2
compound=CN1C(N2CCN(S(=O)(=O)c3ccccc3)CC2)=NS(=O)(=O)c2ccccc21 measurement_type=growth measured=-25.4
compound="CC1(C)CC(O)CCCCCCOc2c(CN)cccc2NC(=O)c2nc(cnc2N)-c2ccc(cc2)S1(=O)=O (centres undefined)" measurement_type=growth measured=9.31
compound=CCCN1[C@@H]2CC[C@H]1/C(=C\c1ccc(OC)c(OC)c1)C(=O)/C2=C/c1ccc(OC)c(OC)c1 measurement_type=growth measured=56.8
compound="C/C=C(\\C)C(=O)NC1=CC[C@@]2(C)C(=CCC3C2CC[C@@]2(C)C3CC[C@@H]2C(C)N(C)C)C1=O (some centres undefined)" measurement_type=growth measured=40.4
compound=COc1ccc(C(=O)c2cc(C)c(OC)c(C)c2)c(OC)c1N(C(=O)CCl)C(=O)CCl measurement_type=growth measured=13.8
compound=Cc1cccc(-c2cn3ccnc3c(-c3ccc4ncn(Cc5ccccc5)c4c3)n2)c1 measurement_type=growth measured=90.5
compound=CC(C)c1ccc(Nc2ccc3c(OCCCN4CCN(C)CC4)cccc3n2)cc1 measurement_type=growth measured=83.1

###

test system: SF-268 CNS; test: NCI-60 one-dose screen, 48 h (100 = growth as untreated, 0 = no growth, -100 = all killed); conditions: 10 µM unless noted
Compounds without any hit were thinned out: in the full panel of roughly 83,000, 20% have a hit.
Examples of molecules with documented growth follow.
MEASUREMENT TYPE: growth (%)

molecule=NC(=O)CSSCC(N)=O measurement_type=growth measured=97.9
molecule=CCCC/C=N/NC(=S)NCc1ccccc1 measurement_type=growth measured=102
molecule="OC(c1ccc(F)c(C(F)(F)F)c1)c1cnccc1NC1CCCCC1 (stereo unspecified)" measurement_type=growth measured=79.6
molecule=O=C1Nc2cc(-c3ccc(NC(=O)C4CC4)cc3)ccc2/C1=C/c1ccc[nH]1 measurement_type=growth measured=104
molecule=CCOC(=O)Nc1ccc(-c2ccc3c(c2)NC(=O)/C3=C\c2ccc[nH]2)cc1 measurement_type=growth measured=100
molecule="CC1(C)CC(O)CCCCCCOc2c(CN)cccc2NC(=O)c2nc(cnc2N)-c2ccc(cc2)S1(=O)=O (stereo unspecified)" measurement_type=growth measured=26.1

###

system: SK-MEL-2 melanoma; test: NCI-60 one-dose screen, 48 h (100 = growth as untreated, 0 = no growth, -100 = all killed); settings: 10 µM unless noted
Compounds without any hit were thinned out: in the full panel of roughly 83,000, 20% have a hit.
Labelling field: enter true (1) if recorded growth is less than 90%. Enter false (0) if it equals or exceeds that cut-off.

smiles_data=CCCCNC(=O)Oc1ccc(/C(=C(\C)c2ccccc2)c2ccc(OCCN3CCCCC3)cc2)cc1 assigned_class="true (1)"
smiles_data=Oc1c(Cl)cc(Cl)c(Cl)c1CNCCNCc1c(O)c(Cl)cc(Cl)c1Cl assigned_class="true (1)"
smiles_data=CCOC(=O)c1ccc2c(c1)ncn2-c1ccc(NC(=O)Nc2cccc(C)c2)cc1 assigned_class="true (1)"
smiles_data=O=C(Nc1ccc(NC(=O)c2cc(=O)[nH]c3ccccc23)cc1)Nc1cccc(Cl)c1 assigned_class="false (0)"
smiles_data=Cc1ccc(-n2cc(-c3ccccc3)c3c2N=NN2CCN=C32)cc1 assigned_class="false (0)"
smiles_data=O=C(Nc1ccccc1)Nc1ccc2cc3ccc(NC(=O)Nc4ccccc4)cc3nc2c1 assigned_class="true (1)"
smiles_data=NC(=O)CSSCC(N)=O assigned_class="false (0)"
smiles_data=C=C(C)[C@@H]1CC[C@]2(C(=O)N[C@H](CO)Cc3ccccc3)CC[C@]3(C)[C@H](CC[C@@H]4[C@@]5(C)CCCNC(C)(C)[C@@H]5CC[C@]43C)[C@@H]12 assigned_class="true (1)"
smiles_data=COc1ccc(C/C(=C(\C)c2ccc(OCCN3CCCC3)cc2)c2ccc(OCCN3CCCC3)cc2)cc1 assigned_class="false (0)"

###

tested on: OVCAR-5 ovarian; assay: NCI-60 one-dose screen, 48 h (100 = growth as untreated, 0 = no growth, -100 = all killed); conditions: 10 µM unless noted
The panel holds about 83,000 compounds, 20% with a hit somewhere; the sample as a whole holds those more often.
Examples of compounds with documented growth follow.
MEASUREMENT TYPE: growth (%)

compound=COc1ccccc1/C=C1\Oc2cc(OCCN3CCCC3)ccc2C1=O measured=86.2
compound=C=CC(=O)N[C@@H](/C=C/C(=O)OCC)Cc1ccc(-c2cc(Cl)cc(Cl)c2)cc1 measured=55.8
compound=CCCCOc1ccc(/C(C)=N/Nc2cc(C)nc3ccc(Br)cc23)cc1 measured=113
compound="COc1cc(/C=N/NC(=O)c2cnn3c2NC(c2ccccc2)C3)ccc1Oc1ccccc1 (stereo not given)" measured=59.6
compound=CN(C)CCC(=O)c1ccc([N+](=O)[O-])cc1 measured=102

###

tested on: SF-295 CNS; test: NCI-60 one-dose screen, 48 h (100 = growth as untreated, 0 = no growth, -100 = all killed); settings: 10 µM unless noted
The panel holds about 83,000 compounds, 20% with a hit somewhere; the sample as a whole holds those more often.
Consider the reported growth of an entry and match it to a band in low bracket = under 20%, middle bracket = from 20% up to 90%, high bracket = 90% and over

compound="N#CC1=C(N)Oc2c(cnn2-c2ccc([N+](=O)[O-])cc2[N+](=O)[O-])C1c1ccccc1 (centres undefined)" assigned_class="high bracket"
compound=COc1ccc(/C=C/c2nc(Nc3ccc(S(=O)(=O)Nc4cc(C)on4)cc3)c3ccccc3n2)cc1 assigned_class="middle bracket"
compound=c1ccc2cc(Cn3c(-c4cccc5ccccc45)[n+](Cc4ccc5ccccc5c4)c4c5ccccc5c5ccccc5c43)ccc2c1 assigned_class="low bracket"
compound=NC(=O)CSSCC(N)=O assigned_class="high bracket"
compound=Cc1ccc(/C=C(/C#N)n2nnc3cccc(F)c32)cc1 assigned_class="low bracket"
compound=CCN1C(=O)/C(=C/C(=O)OC)S/C1=N\NC(=O)c1cc2ccc1/C=C\c1ccc(cc1)/C=C\2 assigned_class="high bracket"
compound=COc1ccc(/C=C/c2nc(Nc3cccc(NC(C)=O)c3)c3ccccc3n2)cc1 assigned_class="middle bracket"
compound=CC(=O)[C@H]1CCC/C=C/[C@@H]2C[C@H](O)C[C@H]2[C@H](O)/C=C/C(=O)O1 assigned_class="low bracket"
